Where these numbers come from: patent US20260209352A1

molecular target: Human CD3εδ-Fc (human) (UniProt P04234); test: KD of scFv-Fc or IgG on human CD3εδ-Fc; instrument not given
Sequence (chain, as listed by the source mutant, chain 1 of 2): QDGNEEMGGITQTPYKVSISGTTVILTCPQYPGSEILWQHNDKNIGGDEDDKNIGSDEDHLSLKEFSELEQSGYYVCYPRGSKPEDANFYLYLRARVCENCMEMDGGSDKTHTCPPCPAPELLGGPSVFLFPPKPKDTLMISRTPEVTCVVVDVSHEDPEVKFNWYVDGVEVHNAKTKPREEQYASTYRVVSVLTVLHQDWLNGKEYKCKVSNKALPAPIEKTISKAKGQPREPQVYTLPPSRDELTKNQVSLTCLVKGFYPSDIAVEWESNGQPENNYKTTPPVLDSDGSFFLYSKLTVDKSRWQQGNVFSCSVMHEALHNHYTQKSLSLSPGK
Sequence (P04234 22-105, stated change not applied, chain 2 of 2): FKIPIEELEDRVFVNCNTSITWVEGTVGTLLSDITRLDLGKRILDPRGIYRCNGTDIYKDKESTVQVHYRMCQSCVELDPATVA
Value Type: Kd

- Binder: "ADI-46362 (antibody, V domains shown, also called Ab46) VH: QVQLVQSGAEVKKPGASVKVSCKASGFNIKDYYMHWVRQAPGQRPEWIGWIDLENANTVYDAKFQGRVTITRDTSASTAYMELSSLRSEDTAAYYCARDAYGRYFYDVWGQGTLVTVSS VL: DIVMTQSPDSLAVSLGERATINCKSSQSLLNARTGKNYLAWYQQKPGQPPKLLIYWASTRESGVPDRFSGSGSGTDFTLTISSLQAEDVAVYYCVQSYFRRTFGGGTKVEIK"
  Result: "800 pM"
- Binder: "ADI-46374 (antibody, V domains shown, also called Ab37) VH: QVQLVQSGAEVKKPGASVKVSCKASGFNIKDYYMHWVRQAPGQRLEWIGWIDLNNANTVYDAKFQGRVTITRDTSASTAYMELSSLRSEDTAVYYCARDAYGRYFYDVWGQGTLVTVSS VL: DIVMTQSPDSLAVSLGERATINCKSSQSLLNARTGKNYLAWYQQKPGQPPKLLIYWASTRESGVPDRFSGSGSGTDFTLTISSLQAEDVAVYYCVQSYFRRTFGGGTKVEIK"
  Result: "840 pM"
